System: β-tryptase (Homo sapiens, UniProt P20231)
Sequence (P20231 31-275): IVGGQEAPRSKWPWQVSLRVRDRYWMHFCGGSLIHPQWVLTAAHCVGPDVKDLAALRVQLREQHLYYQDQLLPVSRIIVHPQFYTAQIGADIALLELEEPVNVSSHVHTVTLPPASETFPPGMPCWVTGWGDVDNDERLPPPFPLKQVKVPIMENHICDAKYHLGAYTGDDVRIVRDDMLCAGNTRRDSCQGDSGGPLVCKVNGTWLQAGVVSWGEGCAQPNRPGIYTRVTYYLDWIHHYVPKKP
Method Description: Kinetic progress curves (kapp, K1, KI*, mechanism)
Type: biochemical
Set-up: purchased EnzoLife Sciences
Reported Conditions: defined by the progress curves: slow-binding (Rev.) or irreversible (Irrev.)
Reported Property: β-tryptase mechanism of inhibition

Compound: C[C@@H]1NC(=O)N[C@@H]1CCCCCC(=O)NCCOCCOCCOCCn1cc(CCCOC(=O)NC(CCCNC(=N)N)P(=O)(Oc2ccccc2)Oc2ccccc2)nn1 (stereo partly drawn) [45b]
Reported Property: β-tryptase mechanism of inhibition
Recorded Measurement: Irrev.
--
Compound: C[C@@H]1NC(=O)N[C@@H]1CCCCCC(=O)NCCOCCOCCOCCn1cc(CCCOC(=O)NC(c2ccc(NC(=N)N)cc2)P(=O)(Oc2ccccc2)Oc2ccccc2)nn1 (stereo partly drawn) [55b]
Reported Property: β-tryptase mechanism of inhibition
Recorded Measurement: Irrev.
--
Compound: C#CCCCOC(=O)NC(CCCNC(=N)N)P(=O)(Oc1ccccc1)Oc1ccccc1 (stereo not drawn) [32b]
Reported Property: β-tryptase mechanism of inhibition
Recorded Measurement: Irrev.

---

molecules and their reported CatG kapp
System: CatG (Homo sapiens, UniProt P08311)
Method Description: Kinetic progress curves (kapp, mechanism)
Format: biochemical
Design: Cathepsin G (cathepsin G human neutrophil, Sigma-Aldrich); purchased Sigma-Aldrich; host or cells: human neutrophil
Reported Conditions: apparent second-order rate constant from progress curves; mean ± SD
Description: Because the compounds described in this paper were previously described as irreversible inhibitors, the IC50 value is inversely correlated with the second-order rate constant of inactivation. […] The inactivation rate constant was determined from the time course of inhibition. Kinetic assays were performed in the following manner. […] Progress curves were recorded in pseudo-first-order conditions ([I]0>>[E]0) and with less than 10% conversion of the substrate during the entire time course. […]
Response body: numeric value in M⁻¹ s⁻¹, unit text excluded.

Would you please look over these solved cases?
Molecule: C[C@@H]1NC(=O)N[C@@H]1CCCCCC(=O)NCCOCCOCCOCCn1cc(CCCOC(=O)NC(c2ccc(NC(=N)N)cc2)P(=O)(Oc2ccccc2)Oc2ccccc2)nn1 (stereo partly drawn) [55b]
Recorded Measurement: 301
//
Molecule: C#CCCCOC(=O)NC(c1ccc(NC(=N)N)cc1)P(=O)(Oc1ccccc1)Oc1ccccc1.O=C(O)C(F)(F)F (stereo not drawn) [37b]
Recorded Measurement: 582
//
Molecule: C#CCCCOC(=O)NC(Cc1ccc(NC(=N)N)cc1)P(=O)(Oc1ccc(NC(C)=O)cc1)Oc1ccc(NC(C)=O)cc1 (stereo not drawn) [35b]
Recorded Measurement: 477

Would you mind telling me what CatG kapp value was observed for CC(=O)Nc1ccc(OP(=O)(Oc2ccc(NC(C)=O)cc2)C(NC(=O)OCCCc2cn(CCOCCOCCOCCNC(=O)CCCCC[C@H]3NC(=O)N[C@H]3C)nn2)c2ccc(NC(=N)N)cc2)cc1 (stereo partly drawn) [56b] ?
420

---

System: Thrombin (recombinant thrombin) (Homo sapiens)
Construct: purchased R&D
Method Description: IC50 determination, spectrophotometric protease assay
Format: biochemical
pIC50: −log10 of the molar value.
Returns true if the recorded pIC50 is greater than or equal to 6, and false otherwise.

Observe how each entry below is paired with its result.
Compound: C#CCCCOC(=O)NC(CCCCN)P(=O)(Oc1ccccc1)Oc1ccccc1.O=C(O)C(F)(F)F (stereo not shown) [29b]
Label: false
//
Compound: C#CCCCOC(=O)NC(CCCNC(=N)N)P(=O)(Oc1ccc(Cl)cc1)Oc1ccc(Cl)cc1 (stereo not shown) [33b]
Label: true
//
Compound: C#CCCCOC(=O)NC(c1ccc(NC(=N)N)cc1)P(=O)(Oc1ccc(NC(C)=O)cc1)Oc1ccc(NC(C)=O)cc1 (stereo not shown) [38b]
Label: false
//
Compound: C#CCCCOC(=O)NC(c1ccc(N)cc1)P(=O)(Oc1ccccc1)Oc1ccccc1 (stereo not shown) [19b]
Label: false
//
Compound: CC(C)C(NC(=O)OCCCc1cn(CCOCCOCCOCCNC(=O)CCCCC[C@H]2NC(=O)N[C@H]2C)nn1)P(=O)(Oc1ccccc1)Oc1ccccc1 (stereo partly shown)
Label: false

Please tell me: is the compound C#CCCCOC(=O)NC(c1ccc(NC(=N)N)cc1)P(=O)(Oc1ccc(Cl)cc1)Oc1ccc(Cl)cc1 (stereo not shown) [39b] at or over 6 in terms of pIC50?
false

Ok, now C#CCCCOC(=O)NC(Cc1ccc(N)cc1)P(=O)(Oc1ccc(Cl)cc1)Oc1ccc(Cl)cc1 (stereo not shown) [18b]
false

// next record C#CCCCOC(=O)NC(C1CCN(C(=N)N)CC1)P(=O)(Oc1ccccc1)Oc1ccccc1 (stereo not shown) [41b]
true

For C[C@@H]1NC(=O)N[C@@H]1CCCCCC(=O)NCCOCCOCCOCCn1cc(CCCOC(=O)NC(Cc2ccc(NC(=N)N)cc2)P(=O)(Oc2ccccc2)Oc2ccccc2)nn1 (stereo partly shown) [50b] then?
false

---

In this section, each of the compounds is paired with its reported pIC50.
System: β-tryptase (recombinant tryptase β-2) (Homo sapiens)
Construct: purchased EnzoLife Sciences
Sequence (P20231 31-275): as above
Method Description: IC50 determination, spectrophotometric protease assay
Format: biochemical
Reported Conditions: read-out: β-tryptase IC50; desthiobiotin probes; 15 min preincubation at 37°C; mean ± SD
For clarity, pIC50 is expressed as the negative log10 of concentration in mol/L.

These recorded examples may help you get a feel for the data.
Compound: C[C@@H]1NC(=O)N[C@@H]1CCCCCC(=O)NCCOCCOCCOCCn1cc(CCCOC(=O)NC(CCCCN)P(=O)(Oc2ccccc2)Oc2ccccc2)nn1 (stereo partly shown) [47b]
pIC50: 5.60
//
Compound: C[C@@H]1NC(=O)N[C@@H]1CCCCCC(=O)NCCOCCOCCOCCn1cc(CCCOC(=O)NC(CCCNC(=N)N)P(=O)(Oc2ccccc2)Oc2ccccc2)nn1 (stereo partly shown) [45b]
pIC50: 6.10

Enter reported pIC50 observed with β-tryptase (recombinant tryptase β-2) (Homo sapiens) for CC(=O)Nc1ccc(OP(=O)(Oc2ccc(NC(C)=O)cc2)C(CCCCN)NC(=O)OCCCc2cn(CCOCCOCCOCCNC(=O)CCCCC[C@H]3NC(=O)N[C@H]3C)nn2)cc1 (stereo partly shown) [49b]
5.95

Can you handle C[C@@H]1NC(=O)N[C@@H]1CCCCCC(=O)NCCOCCOCCOCCn1cc(CCCOC(=O)NC(c2ccc(NC(=N)N)cc2)P(=O)(Oc2ccc(Cl)cc2)Oc2ccc(Cl)cc2)nn1 (stereo partly shown) [57b] next?
7.70

Please do the same for C[C@@H]1NC(=O)N[C@@H]1CCCCCC(=O)NCCOCCOCCOCCn1cc(CCCOC(=O)NC(CCCNC(=N)N)P(=O)(Oc2ccc(Cl)cc2)Oc2ccc(Cl)cc2)nn1 (stereo partly shown) [46b] as well.
7.40

Try this compound next: CC(=O)Nc1ccc(OP(=O)(Oc2ccc(NC(C)=O)cc2)C(NC(=O)OCCCc2cn(CCOCCOCCOCCNC(=O)CCCCC[C@H]3NC(=O)N[C@H]3C)nn2)c2ccc(NC(=N)N)cc2)cc1 (stereo partly shown) [56b]
6.41

Please answer likewise for C[C@@H]1NC(=O)N[C@@H]1CCCCCC(=O)NCCOCCOCCOCCn1cc(CCCOC(=O)NC(c2ccc(NC(=N)N)cc2)P(=O)(Oc2ccccc2)Oc2ccccc2)nn1 (stereo partly shown) [55b]
6.43

---

System: Trypsin-3 (recombinant trypsin-3) (Homo sapiens)
Construct: purchased R&D
Sequence (P35030 1-304): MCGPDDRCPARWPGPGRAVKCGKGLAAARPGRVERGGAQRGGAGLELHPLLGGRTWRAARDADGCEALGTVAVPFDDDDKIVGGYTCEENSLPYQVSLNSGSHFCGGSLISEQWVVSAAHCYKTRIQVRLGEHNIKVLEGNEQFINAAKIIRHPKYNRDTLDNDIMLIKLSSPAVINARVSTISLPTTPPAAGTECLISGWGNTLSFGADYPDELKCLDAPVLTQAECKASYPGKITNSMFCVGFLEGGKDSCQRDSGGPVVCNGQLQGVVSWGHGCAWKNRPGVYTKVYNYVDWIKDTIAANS
Method Description: IC50 determination, spectrophotometric protease assay
Assay type: biochemical
# Lookup of reported IC50 keyed by entry

Compound: C#CCCCOC(=O)NC(c1ccc(NC(=N)N)cc1)P(=O)(Oc1ccccc1)Oc1ccccc1.O=C(O)C(F)(F)F (stereo not shown) [37b]
System: Trypsin-3 (recombinant trypsin-3) (Homo sapiens)
IC50: 230 nM
--
Compound: C#CCCCOC(=O)NC(Cc1ccc(CNC(=N)N)cc1)P(=O)(Oc1ccccc1)Oc1ccccc1 (stereo not shown) [40b]
System: Trypsin-3 (recombinant trypsin-3) (Homo sapiens)
IC50: > 10000 nM
--
Compound: C#CCCCOC(=O)NC(CCCNC(=N)N)P(=O)(Oc1ccc(Cl)cc1)Oc1ccc(Cl)cc1 (stereo not shown) [33b]
System: Trypsin-3 (recombinant trypsin-3) (Homo sapiens)
IC50: 40 nM

# input for lookup
Can you look up the measured IC50 of C#CCCCOC(=O)NC(Cc1ccc(NC(=N)N)cc1)P(=O)(Oc1ccc(Cl)cc1)Oc1ccc(Cl)cc1 (stereo not shown) [36b] for me?
< 1 nM
